# Tested on: RXF 393 renal
# protocol: NCI tumour cell line growth inhibition, 48 h
measured-endpoint: GI50

compound="COc1ccc(C2CC(c3ccc4ccccc4c3)=NN2/C=C2\\SC(=S)N(NC(=O)Cc3ccccc3Nc3c(Cl)cccc3Cl)C2=O)cc1 (configuration not stated)" obs_value="0.282 µM"
compound=C[C@]12CC/C(=N\O)C[C@@H]1CC[C@@H]1[C@@H]2CC[C@]2(C)/C(=N/O)CC[C@@H]12 obs_value="34.1 µM"
compound="COc1ccc(C(=O)OC2C(OC3C(O)COC(O[C@H]4C[C@H]5[C@@H]6CC=C7C[C@@H](O)CC[C@]7(C)[C@H]6CC[C@]5(C)[C@H]4[C@H](C)C(=O)CCC(C)C)C3OC(=O)C(C)C)OCC(O)C2O)cc1 (some centres not stated)" obs_value="< 0.00275 µM"
compound=COc1ccc2nc(-c3ccc(Cl)cc3)cc(-c3nnc(SCC(=O)Nc4ccc(/C(C)=N\O)cc4)o3)c2c1 obs_value="1.51 µM"
compound=COc1ccc(/C=C(/C(=O)N2CCN(c3ccc(C)cc3)CC2)c2cc(OC)c(OC)c(OC)c2)cc1N obs_value="0.271 µM"
compound=O=C(/C=C/c1ccccc1)Nc1ncc(Cc2ccccc2)s1 obs_value="0.267 µM"
compound=[O-]c1ccccc1[C-]=Nc1ccccc1O.[O-]c1ccccc1[C-]=Nc1ccccc1O.[O]=[U]=[O] obs_value="20.1 µM"

###

# Tested on: SR leukemia
# protocol: NCI tumour cell line growth inhibition, 48 h
measured-endpoint: TGI (µM)

compound=Cn1cc(S(=O)(=O)NC(=O)Nc2ccc(Cl)cc2)c(=O)c2ccc(Cl)cc21 value_modifier=> obs_value=100
compound=CN(Cc1ccccc1)c1ncnc2ccc(Br)cc12 value_modifier== obs_value=38
compound=CCCCCCCCCCCCCCCCCc1cc(Cl)nc(Cl)n1 value_modifier=> obs_value=100
compound="O=S(Nc1ccccc1)c1ccccc1Oc1ccccc1 (stereo unspecified)" value_modifier=> obs_value=100
compound=CC(/C=C/c1ccccc1)=N\N=C(C)\C=C\c1ccccc1 value_modifier=> obs_value=100
compound="Cc1cc2nn(C3CCCCO3)nc2cc1C (stereo unspecified)" value_modifier=> obs_value=100
compound=Cc1nc2ccc(F)cc2c2c1CCN2c1ccccc1 value_modifier== obs_value=37
compound="CC1(OCc2ccccc2)C(=O)N2C1N(C(=O)OCc1ccccc1)CC2(C)C (stereo unspecified)" value_modifier== obs_value=95
compound=NC(N)=NS(=O)(=O)c1ccc(NC(=O)c2cccn3c(=O)c4ccccc4nc23)cc1 value_modifier== obs_value=84.3
compound=CN(C)c1ccc(/C=N/NC(=O)CSc2nc3sc4c(c3c(=O)n2-c2ccccc2)CCCCC4)cc1 value_modifier=> obs_value=100
compound=CCCCCCCCCCCCCCCCSS(C)(=O)=O value_modifier== obs_value=21.1
compound=Cc1cc(C)nc(NS(=O)(=O)c2ccc(Nc3nc4nc(NCc5ccccc5)nc(-c5ccc(O)cc5)c4c(=O)[nH]3)cc2)n1 value_modifier== obs_value=81.3
compound=COc1ccc(-c2c(-c3cc4c(c(OC)c3OC)OCO4)noc2N)cc1 value_modifier== obs_value=69.8
compound=C[C@]12CCC(=O)C=C1CC[C@@H]1[C@@H]2CC[C@]2(C)C(=O)/C(=C/c3ccncc3)C[C@@H]12 value_modifier== obs_value=27.1
compound=CC[C@]12C=CCN3CC[C@@]4(c5ccc(OC)cc5N(C)[C@H]4[C@@](O)(C(=O)OC)[C@@H]1OC(=O)CCCC[P+](c1ccccc1)(c1ccccc1)c1ccccc1)[C@@H]32 value_modifier== obs_value=4.14
compound="C=CC(C)CCC(C/C=C(\\C)CCCC(C)C)C(=C)CCCC(C)C (stereo unspecified)" value_modifier=> obs_value=100
compound=CC[C@@]1(O)C(=O)OCc2c1cc1n(c2=O)Cc2cc3c([N+](=O)[O-])c(O)ccc3nc2-1 value_modifier=< obs_value=0.0215
compound=Clc1ccc(-c2c3nc(c(-c4ccc(Cl)cc4)c4ccc([nH]4)c(-c4ccc(Cl)cc4)c4nc(c(-c5ccc(Cl)cc5)c5ccc2[nH]5)C=C4)C=C3)cc1 value_modifier=> obs_value=100
compound="COC(=O)C12OCC34C(CC5C(C)C6=CC(=O)OC6=CC5(C)C3C(O)C1O)OC(=O)C(OC(C)=O)C24 (stereo unspecified)" value_modifier== obs_value=64.6
compound=CSc1ccc(/C=C/C(=O)c2nc3ccccc3[nH]2)cc1 value_modifier== obs_value=6.56
compound=O=c1/c(=C/c2ccccc2O)sc2nc3ccccc3n12 value_modifier== obs_value=61.3
compound=ClCCN(CC#CCCCC#CCN(CCCl)CCCl)CCCl value_modifier== obs_value=7.66
compound=CCN1C(=O)/C(=C\c2coc3ccccc3c2=O)SC1=S value_modifier=> obs_value=100
compound=CC/C=C\C[C@H](O)C/C=C1/C(=O)C=C[C@@H]1C/C=C\CCCC(=O)OCCS(=O)(=O)c1ccccc1 value_modifier== obs_value=13.2
compound=O=P1(N(CCCl)CCCl)Oc2c(Cl)cc(Cl)c(Cl)c2Cc2c(Cl)c(Cl)cc(Cl)c2O1 value_modifier=> obs_value=100
compound=Cc1cccc(NC(N)=S)c1 value_modifier=> obs_value=100
compound="C=C1CC(COc2ccc3c(C)c(Cl)c(=O)oc3c2)(c2ccccc2)OC1=O (stereo unspecified)" value_modifier=> obs_value=21.5
compound=O=C(Nc1ccc(-n2ccc3c(NC(=O)c4ccccc4)ncnc32)cc1)Nc1ccc(Cl)c(C(F)(F)F)c1 value_modifier== obs_value=4.76
compound="NNC(=O)C(O)C(O)C(O)CO (stereo unspecified)" value_modifier=> obs_value=100
compound="COc1ccc2c3c(ccc2c1)NC(C(=O)O)CC3 (stereo unspecified)" value_modifier== obs_value=58.4
compound=Cc1ccc([N+]2=NC(c3ccc([N+](=O)[O-])cc3)=NN(c3ccccc3)C2)cc1 value_modifier=> obs_value=100
compound="CC1OC1P(=O)(O)O (stereo unspecified)" value_modifier=> obs_value=100
compound="CC(C)COC(=O)N1N=NC2C3CC(=O)C(O3)C21 (stereo unspecified)" value_modifier=> obs_value=100
compound=COc1ccc2c(c1)OCC1=C2Oc2ccccc2C1 value_modifier=> obs_value=100
compound=CSc1n[nH]c2c1c(C)nn2-c1ccccc1 value_modifier=> obs_value=100
compound="O=C(CC(O)c1cccnc1)CC(O)c1cccnc1 (stereo unspecified)" value_modifier=> obs_value=100
